Reference for the values: ChEMBL document CHEMBL3745695

Molecular target: CYP3A4 (Homo sapiens, UniProt P08684)
Sequence (P08684 whole entry): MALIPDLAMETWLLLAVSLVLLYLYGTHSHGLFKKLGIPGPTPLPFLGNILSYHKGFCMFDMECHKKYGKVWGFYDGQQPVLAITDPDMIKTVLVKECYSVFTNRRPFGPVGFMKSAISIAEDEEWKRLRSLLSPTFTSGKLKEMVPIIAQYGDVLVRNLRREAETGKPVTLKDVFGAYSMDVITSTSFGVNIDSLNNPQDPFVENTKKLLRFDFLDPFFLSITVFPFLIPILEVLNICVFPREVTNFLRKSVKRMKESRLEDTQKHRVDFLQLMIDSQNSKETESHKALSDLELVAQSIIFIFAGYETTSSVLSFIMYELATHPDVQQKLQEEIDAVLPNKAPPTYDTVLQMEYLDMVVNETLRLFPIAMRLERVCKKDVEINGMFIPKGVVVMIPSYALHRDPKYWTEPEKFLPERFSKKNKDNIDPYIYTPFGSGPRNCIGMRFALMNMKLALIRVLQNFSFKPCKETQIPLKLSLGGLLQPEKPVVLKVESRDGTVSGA
Assay: Metabolic stability assessed as recombinant human CYP3A4-mediated drug degradation by measuring compound remaining incubated for 1 hr by MS analysis
Type: ADME
Settings: read-out: Stability
REPORTED ENDPOINT: remaining at 1 h (%)

>  <COMPOUND>
CN(C)CCN1CCN(c2nc(-c3ccccn3)nc3c2CN(Cc2ccc(F)cc2)CC3)CC1

>  <OBSERVED RESULT>
82

$$$$
>  <COMPOUND>
CCN(C(C)=O)C1CCN(c2nc(-c3ccccn3)nc3c2CN(Cc2ccc(OC)cc2)CC3)C1 (stereo unspecified)

>  <OBSERVED RESULT>
61

$$$$
>  <COMPOUND>
NC(=O)CN1CCN(c2nc(-c3cccnc3)nc3c2CN(Cc2ccccc2)CC3)CC1

>  <OBSERVED RESULT>
17

$$$$
>  <COMPOUND>
CN(C)CCN1CCN(c2nc(-c3ccccn3)nc3c2CN(CC2CCCCC2)CC3)CC1

>  <OBSERVED RESULT>
65

$$$$
>  <COMPOUND>
CN(C)CCN1CCN(c2nc(-c3ccccn3)nc3c2CN(C(=O)c2ccccc2)CC3)CC1

>  <OBSERVED RESULT>
100

$$$$
>  <COMPOUND>
Fc1ccc(CN2CCc3nc(-c4ccccn4)nc(NCCN4CCCC4)c3C2)cc1

>  <OBSERVED RESULT>
71

$$$$
>  <COMPOUND>
CN(C)CCN1CCN(c2nc(-c3cccnc3)nc3c2CN(Cc2ccccc2)CC3)CC1

>  <OBSERVED RESULT>
41

$$$$
>  <COMPOUND>
COc1ccc(CN2CCc3nc(-c4ccccn4)nc(N4CCN(CC(N)=O)CC4)c3C2)cc1

>  <OBSERVED RESULT>
79

$$$$
>  <COMPOUND>
CN1CCN(CCCNc2nc(-c3ccncc3)nc3c2CN(Cc2ccccc2)CC3)CC1

>  <OBSERVED RESULT>
13

$$$$
>  <COMPOUND>
NC(=O)C1CCN(c2nc(-c3cccnc3)nc3c2CN(Cc2ccccc2)CC3)CC1

>  <OBSERVED RESULT>
22

$$$$
>  <COMPOUND>
CC(C)c1ccc(CN2CCc3nc(-c4ccccn4)nc(N4CCN(CCN(C)C)CC4)c3C2)cc1

>  <OBSERVED RESULT>
58

$$$$
>  <COMPOUND>
CC(=O)NCCNc1nc(-c2ccccn2)nc2c1CN(Cc1ccc(F)cc1)CC2

>  <OBSERVED RESULT>
80

$$$$
>  <COMPOUND>
COc1ccc(CN2CCc3nc(-c4ccccn4)nc(NCCCn4ccnc4)c3C2)cc1

>  <OBSERVED RESULT>
28

$$$$
>  <COMPOUND>
CCN(C(C)=O)C1CCN(c2nc(-c3ccccn3)nc3c2CN(Cc2ccc(Cl)cc2)CC3)C1 (stereo unspecified)

>  <OBSERVED RESULT>
3

$$$$
>  <COMPOUND>
CN(C)CCN1CCN(c2nc(-c3ccccn3)nc3c2CN(Cc2ccccc2)CC3)CC1

>  <OBSERVED RESULT>
100

$$$$
>  <COMPOUND>
COc1ccc(CN2CCc3nc(-c4ccccn4)nc(N4CCN(CCO)CC4)c3C2)cc1

>  <OBSERVED RESULT>
97

$$$$
